System: HCT 116
Experiment: Vitality assay (tumour cell proliferation/vitality, Alamar Blue), HCT 116
Type: cell-based
Conditions: Homo sapiens, 96 h, HCT 116 cells, 4 days
Procedure: In the present experiment description, the inhibition of tumour cell proliferation/tumour cell vitality by active compounds is described. The cells are sown in a suitable cell density in microtitre plates (96-well format) and the test substances are added in the form of a concentration series. After four further days of cultivation in serum-containing medium, the tumour cell proliferation/tumour cell vitality can be determined by means of an Alamar Blue test system. […]
Measured Property: IC50

Problem: GET /values?readout=IC50&system=HCT 116&item= COCCOc1ncnc2[nH]cc(-c3cn(Cc4ccccc4)nn3)c12 [Compound A1]
Result: 1 to 10 µM

====

Entries with reported IC50 on PDK1 (Homo sapiens)
Sequence (O15530 51-556 limits assumed): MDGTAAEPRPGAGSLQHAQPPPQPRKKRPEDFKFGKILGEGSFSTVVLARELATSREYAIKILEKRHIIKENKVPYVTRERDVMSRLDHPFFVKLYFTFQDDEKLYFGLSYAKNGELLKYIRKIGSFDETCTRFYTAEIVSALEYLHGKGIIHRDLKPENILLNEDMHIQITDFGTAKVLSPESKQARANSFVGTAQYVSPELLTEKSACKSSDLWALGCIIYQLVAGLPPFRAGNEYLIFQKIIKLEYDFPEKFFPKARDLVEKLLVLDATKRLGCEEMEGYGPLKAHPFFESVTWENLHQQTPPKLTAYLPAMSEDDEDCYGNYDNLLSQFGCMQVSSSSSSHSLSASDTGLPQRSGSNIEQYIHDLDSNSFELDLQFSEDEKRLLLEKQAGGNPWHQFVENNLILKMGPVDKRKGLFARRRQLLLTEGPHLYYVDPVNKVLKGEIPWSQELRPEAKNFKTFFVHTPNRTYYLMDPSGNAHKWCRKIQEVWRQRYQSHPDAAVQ

Some entries whose results are on file:
{"columns": ["Compound", "IC50"],
 "data": [
  ["Fc1cccc(C(CCN2CCCCC2)n2cc(-c3c[nH]c4ncncc34)nn2)c1F (stereo not shown) [Compound A9]", "1000 to 10000 nM"],
  ["COCCOc1ncnc2[nH]cc(-c3cn(Cc4ccccc4)nn3)c12 [Compound A1]", "10 to 1000 nM"],
  ["COc1ncnc2[nH]cc(-c3cn(Cc4ccccc4)nn3)c12 [Compound A2]", "10 to 1000 nM"]
]}

Turning now to a further record.
Problem: GET /values?readout=IC50&system=PDK1 (Homo sapiens)&item= c1ccc(Cn2cc(-c3c[nH]c4ncncc34)nn2)cc1 [Compound A6]
Result: 1000 to 10000 nM

====

Entries with reported pIC50 on IKKepsilon (Homo sapiens, UniProt Q14164)
Sequence (Q14164 whole entry): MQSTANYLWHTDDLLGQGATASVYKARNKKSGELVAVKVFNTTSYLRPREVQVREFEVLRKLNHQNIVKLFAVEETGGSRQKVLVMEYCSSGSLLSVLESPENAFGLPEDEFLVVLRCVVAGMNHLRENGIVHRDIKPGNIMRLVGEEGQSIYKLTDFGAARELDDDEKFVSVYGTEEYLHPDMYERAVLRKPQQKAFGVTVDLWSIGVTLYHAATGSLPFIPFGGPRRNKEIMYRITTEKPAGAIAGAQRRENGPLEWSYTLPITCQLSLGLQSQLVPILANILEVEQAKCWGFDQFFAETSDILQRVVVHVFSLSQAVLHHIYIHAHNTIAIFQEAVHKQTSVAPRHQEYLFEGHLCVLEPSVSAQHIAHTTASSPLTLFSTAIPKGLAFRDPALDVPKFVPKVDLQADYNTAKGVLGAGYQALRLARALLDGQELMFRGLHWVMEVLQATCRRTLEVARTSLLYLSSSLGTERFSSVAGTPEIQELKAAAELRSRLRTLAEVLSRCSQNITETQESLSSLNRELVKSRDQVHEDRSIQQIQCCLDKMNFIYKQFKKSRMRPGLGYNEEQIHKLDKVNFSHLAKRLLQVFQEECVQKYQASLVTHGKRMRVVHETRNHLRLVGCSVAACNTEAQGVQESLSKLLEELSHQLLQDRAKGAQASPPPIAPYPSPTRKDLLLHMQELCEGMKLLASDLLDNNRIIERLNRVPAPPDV
pIC50: −log10 of the molar value.

{"columns": ["Smiles Text", "Assay Result"],
 "data": [
  ["COCCOc1ncnc2[nH]cc(-c3cn(Cc4ccccc4)nn3)c12", "5.00 to 6.00"]
]}

Turning now to a further record.
Problem: GET /values?readout=pIC50&system=IKKepsilon (Homo sapiens, UniProt Q14164)&item= COc1ncnc2[nH]cc(-c3cn(Cc4ccccc4)nn3)c12
Result: 6.00 to 8.00

====

Protein target, amino acids: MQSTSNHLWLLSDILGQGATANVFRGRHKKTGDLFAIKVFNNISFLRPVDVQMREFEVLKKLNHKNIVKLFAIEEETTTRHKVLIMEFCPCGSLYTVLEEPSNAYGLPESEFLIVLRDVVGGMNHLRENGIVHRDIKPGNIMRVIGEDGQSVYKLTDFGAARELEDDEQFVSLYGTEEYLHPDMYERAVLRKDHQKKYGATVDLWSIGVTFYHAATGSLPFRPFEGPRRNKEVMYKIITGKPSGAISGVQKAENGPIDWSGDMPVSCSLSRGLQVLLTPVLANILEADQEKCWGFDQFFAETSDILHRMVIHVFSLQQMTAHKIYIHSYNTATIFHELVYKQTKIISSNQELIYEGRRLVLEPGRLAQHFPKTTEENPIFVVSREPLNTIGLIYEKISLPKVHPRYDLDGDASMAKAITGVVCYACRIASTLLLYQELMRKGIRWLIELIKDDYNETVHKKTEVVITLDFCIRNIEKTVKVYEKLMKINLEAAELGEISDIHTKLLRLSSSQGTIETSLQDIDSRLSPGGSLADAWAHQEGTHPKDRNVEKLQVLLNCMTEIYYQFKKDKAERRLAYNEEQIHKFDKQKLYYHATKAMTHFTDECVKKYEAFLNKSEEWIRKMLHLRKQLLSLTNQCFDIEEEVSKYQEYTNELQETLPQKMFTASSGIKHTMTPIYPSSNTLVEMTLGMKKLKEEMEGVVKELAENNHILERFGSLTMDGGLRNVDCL
pIC50: −log10 of the molar value.
Measured Property: pIC50

{"columns": ["Compound", "pIC50"],
 "data": [
  ["COCCOc1ncnc2[nH]cc(-c3cn(Cc4ccccc4)nn3)c12", "6.00 to 8.00"]
]}

Turning now to a further record.
Problem: Using the record for Fc1cccc(C(CCN2CCCCC2)n2cc(-c3c[nH]c4ncncc34)nn2)c1F (centres unmarked) , report its pIC50.
Result: < 5.00
